Each record here notes measured CC50.
Tested on: MOLT-4
Assay: Growth inhibition of human MOLT4 cells after 48 hrs by sulforhodamine B assay
Format: functional
Conditions: MOLT-4, 48 h, read-out: LC50 (the source's name)
readout kind: CC50

compound="COc1ccc(/C=N/c2nc3[nH]nc(C)n3c(=O)c2S(=O)(=O)NN2C(=O)C(CN3CCOCC3)SC2c2ccc(OC)cc2)cc1 (centres undefined)" tested_on=MOLT-4 result="86.8 µM"
compound="COc1ccc(/C=N/c2nc3[nH]nc(C)n3c(=O)c2S(=O)(=O)NN2C(=O)C(CN3CCN(C)CC3)SC2c2cccs2)cc1 (centres undefined)" tested_on=MOLT-4 result="> 100 µM"
compound="COc1ccc(/C=N/c2nc3[nH]nc(C)n3c(=O)c2S(=O)(=O)NN2C(=O)C(CN3CCN(C)CC3)SC2c2ccc(OC)cc2)cc1 (centres undefined)" tested_on=MOLT-4 result="> 100 µM"
compound="COc1ccc(/C=N/c2nc3[nH]nc(C)n3c(=O)c2S(=O)(=O)NN2C(=O)C(CN3CCOCC3)SC2c2cccs2)cc1 (centres undefined)" tested_on=MOLT-4 result="> 100 µM"

---

Test system: OVCAR-8
Assay: Growth inhibition of human OVCAR8 cells after 48 hrs by sulforhodamine B assay
Type: functional
Details: OVCAR-8, 48 h
readout kind: TGI (µM)

molecule="COc1ccc(/C=N/c2nc3[nH]nc(C)n3c(=O)c2S(=O)(=O)NN2C(=O)C(CN3CCOCC3)SC2c2ccc(OC)cc2)cc1 (centres undefined)" unit_abbrev=µM qualifier_sign=> readout_number=100
molecule="COc1ccc(/C=N/c2nc3[nH]nc(C)n3c(=O)c2S(=O)(=O)NN2C(=O)C(CN3CCOCC3)SC2c2cccs2)cc1 (centres undefined)" unit_abbrev=µM qualifier_sign=> readout_number=100
molecule="COc1ccc(/C=N/c2nc3[nH]nc(C)n3c(=O)c2S(=O)(=O)NN2C(=O)C(CN3CCN(C)CC3)SC2c2cccs2)cc1 (centres undefined)" unit_abbrev=µM qualifier_sign== readout_number=40.5
molecule="COc1ccc(/C=N/c2nc3[nH]nc(C)n3c(=O)c2S(=O)(=O)NN2C(=O)C(CN3CCN(C)CC3)SC2c2ccc(OC)cc2)cc1 (centres undefined)" unit_abbrev=µM qualifier_sign== readout_number=47.2

---

Test system: CCRF-CEM
Test: Growth inhibition of human CCRF-CEM cells after 48 hrs by sulforhodamine B assay
Format: functional
TGI values for the molecules below.
readout kind: TGI (µM)

molecule="COc1ccc(/C=N/c2nc3[nH]nc(C)n3c(=O)c2S(=O)(=O)NN2C(=O)C(CN3CCN(C)CC3)SC2c2cccs2)cc1 (centres undefined)" tested_on=CCRF-CEM qualifier_sign== readout_number=16.1
molecule="COc1ccc(/C=N/c2nc3[nH]nc(C)n3c(=O)c2S(=O)(=O)NN2C(=O)C(CN3CCOCC3)SC2c2cccs2)cc1 (centres undefined)" tested_on=CCRF-CEM qualifier_sign=> readout_number=100
molecule="COc1ccc(/C=N/c2nc3[nH]nc(C)n3c(=O)c2S(=O)(=O)NN2C(=O)C(CN3CCN(C)CC3)SC2c2ccc(OC)cc2)cc1 (centres undefined)" tested_on=CCRF-CEM qualifier_sign== readout_number=49.2
molecule="COc1ccc(/C=N/c2nc3[nH]nc(C)n3c(=O)c2S(=O)(=O)NN2C(=O)C(CN3CCOCC3)SC2c2ccc(OC)cc2)cc1 (centres undefined)" tested_on=CCRF-CEM qualifier_sign== readout_number=78.9
